Target: T1, LAG3 Protein, Human, Recombinant (His Tag) (Sino Biological Catalog No. 16498-H08H) (human, UniProt P18627 23-450)
T1 construct: Bought protein; also called hLAG3-His; LAG3-His; not shown: His tag
T1 sequence (looked up): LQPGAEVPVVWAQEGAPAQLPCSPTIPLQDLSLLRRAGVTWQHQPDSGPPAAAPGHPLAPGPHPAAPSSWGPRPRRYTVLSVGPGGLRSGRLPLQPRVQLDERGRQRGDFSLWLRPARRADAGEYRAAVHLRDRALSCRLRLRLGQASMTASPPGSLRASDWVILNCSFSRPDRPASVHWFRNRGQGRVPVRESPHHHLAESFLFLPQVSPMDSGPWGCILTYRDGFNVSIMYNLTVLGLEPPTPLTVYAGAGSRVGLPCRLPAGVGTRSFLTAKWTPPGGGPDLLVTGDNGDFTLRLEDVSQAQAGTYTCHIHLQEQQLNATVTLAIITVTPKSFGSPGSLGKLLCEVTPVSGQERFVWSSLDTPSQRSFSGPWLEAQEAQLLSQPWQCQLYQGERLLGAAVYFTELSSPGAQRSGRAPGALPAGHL
Experiment: SPR (Biacore), sdAb captured by anti-human Fc, LAG3-His analyte
reported.endpoint: kon (M⁻¹ s⁻¹)
Please respond with the number in M⁻¹ s⁻¹ and leave the unit unwritten.

// known answers, use as guide
binder: sdAb No. 25 (VHH, Fc of the tested form not described; also called sdAb 25; sdAb #25; not shown: Fc part implied by anti-human Fc capture and anti-human IgG Fc detection) VHH: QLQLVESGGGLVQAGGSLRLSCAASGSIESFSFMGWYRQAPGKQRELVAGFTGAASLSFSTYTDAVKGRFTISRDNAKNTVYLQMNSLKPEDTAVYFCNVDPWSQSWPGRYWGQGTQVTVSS
kon (M⁻¹ s⁻¹): 6.31e+06

binder: sdAb No. 1 (VHH, the tested form was captured by anti-human Fc, its Fc is not described; also called sdAb 1; not shown: Fc part implied by anti-human Fc capture) VHH: QLQLVESGGGLVQAGGSLRLSCAASGFTFDDYAIGWFRQAPGKEREGVSCIRSSDGSTYYADSVKGRFTISSDNAKNTVYLQMNSLKPEDTAVYYCAKDNYSDCRGPYHYWGQGTQVTVSS
kon (M⁻¹ s⁻¹): 4.77e+06

binder: sdAb No. 24 (VHH, Fc of the tested form not described; also called sdAb 24; not shown: Fc part implied by anti-human Fc capture) VHH: QLQLVESGGGLVQPGGSLRLSCAASGFTLNEHAIGWFRQAPGKEREGVSCISSSDGSTYYHDSVKGRFTMSRDDAKNTVYLQMNSLKAEDTAIYYCAAALGRDCQGGQWKTSSWGQGTQVTVSS
kon (M⁻¹ s⁻¹): 894000

binder: sdAb No. 18 (VHH, Fc of the tested form not described; also called sdAb 18; not shown: Fc part implied by anti-human Fc capture) VHH: QVQLVESGGGLVQPGGSLRLSCAASGFTLNEHAIGWFRRAPGKEREGVSCISSSDGSTYYHDSVKGRFNMSRDDAKNSVYLQMSSLKPEDTAIYYCAAALGRDCQGGQWKTSSWGQGTQVTVSS
kon (M⁻¹ s⁻¹): 2.31e+06

Exercise: Answer with the recorded kon of sdAb No. 21 (VHH, Fc of the tested form not described; also called sdAb 21; not shown: Fc part implied by anti-human Fc capture) VHH: QLQLVESGGGLVQPGGSLRLSCAASGLTLDGYAIAWFRQAPGKEREGLSCISGTDGSTHYLDSVKGRFTISRDNGKNTMALQMNSLQFGDTAIYYCAARRGSCSGSWTYWGQGTQITVSS only.
Key: 6.41e+06

Exercise: Answer with the recorded kon of sdAb No. 73 (VHH, Fc not described; also called sdAb 73; not shown: Fc part implied by anti-human Fc capture) VHH: QVQLVESGGGLVQPGGSLKLSCTASGFTLDYYAIAWFRQAPGKEREAVSCISSSDGSTRYADSVKGRFTISRDNAKNTVYLQMNSLKPEDTAVYYCAADPYGDCRGPYDYWGQGTQVTVSS only.
Key: 5.35e+06

Exercise: Answer with the recorded kon of sdAb No. 17 (VHH, Fc of the tested form not described; also called sdAb 17; not shown: Fc part implied by anti-human Fc capture and anti-human IgG1 Fc detection) VHH: QLQLVESGGGLVQPGGSLRLSCAASGLTLDGYAIGWFRQAPGKEREGLACISGSDGSTHYLDSVKGRFTISRDNGKNTMALQMNSLQFGDTAIYYCAARRGSCSGSWTYWGQGTQVTVSS only.
Key: 6.6e+06

Exercise: Answer with the recorded kon of sdAb No. 27 (VHH, Fc of the tested form not described; also called sdAb 27; not shown: Fc part implied by anti-human Fc capture and anti-human IgG Fc detection) VHH: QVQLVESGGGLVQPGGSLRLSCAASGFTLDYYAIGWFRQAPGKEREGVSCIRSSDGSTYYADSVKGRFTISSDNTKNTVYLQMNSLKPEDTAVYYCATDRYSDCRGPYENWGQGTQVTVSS only.
Key: 1.17e+07
